Biological target: T1, human CD24 (human, UniProt P25063 27-59, heavily glycosylated, GPI-anchored (as described in the background))
T1 construct: whole, on cells; Target of all cell-based FACS assays; also called hCD24; Cluster of differentiation 24
T1 chain (looked up): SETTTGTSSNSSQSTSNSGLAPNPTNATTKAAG
Test: FACS, MCF7 cells
Response field label: string, one of 1.0 (EC50 strictly below 8 nM) or 0.0.

binder	cat
73H5-1G2 (antibody, V domains shown, mouse monoclonal antibody) VH: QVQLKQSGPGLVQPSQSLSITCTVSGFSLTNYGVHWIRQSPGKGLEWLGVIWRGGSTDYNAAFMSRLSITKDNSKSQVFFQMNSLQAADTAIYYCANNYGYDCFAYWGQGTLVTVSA VL: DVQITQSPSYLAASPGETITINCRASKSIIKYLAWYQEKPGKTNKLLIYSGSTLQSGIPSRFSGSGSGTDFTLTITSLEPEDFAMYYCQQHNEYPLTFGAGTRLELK	0.0
ch100F2E3-hIgG4 (antibody, V domains shown, chimeric) VH: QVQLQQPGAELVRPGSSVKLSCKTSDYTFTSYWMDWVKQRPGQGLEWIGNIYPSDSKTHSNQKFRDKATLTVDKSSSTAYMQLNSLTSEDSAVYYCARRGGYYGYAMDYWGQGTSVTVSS VL: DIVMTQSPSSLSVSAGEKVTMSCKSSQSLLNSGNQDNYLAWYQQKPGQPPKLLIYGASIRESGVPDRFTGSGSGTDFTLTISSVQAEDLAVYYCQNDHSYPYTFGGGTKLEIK	1.0
56A7E3 (antibody, V domains shown, mouse monoclonal antibody) VH: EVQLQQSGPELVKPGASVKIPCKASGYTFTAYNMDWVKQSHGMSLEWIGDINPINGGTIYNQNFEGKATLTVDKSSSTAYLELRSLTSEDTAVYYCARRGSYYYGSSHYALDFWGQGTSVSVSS VL: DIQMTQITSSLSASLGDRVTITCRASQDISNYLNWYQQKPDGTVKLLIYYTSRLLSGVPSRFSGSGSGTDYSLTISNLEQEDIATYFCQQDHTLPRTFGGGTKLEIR	0.0
81A1F8 (antibody, V domains shown, mouse monoclonal antibody) VH: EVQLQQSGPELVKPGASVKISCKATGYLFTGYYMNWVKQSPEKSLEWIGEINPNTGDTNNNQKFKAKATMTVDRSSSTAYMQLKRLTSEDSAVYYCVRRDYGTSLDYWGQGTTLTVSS VL: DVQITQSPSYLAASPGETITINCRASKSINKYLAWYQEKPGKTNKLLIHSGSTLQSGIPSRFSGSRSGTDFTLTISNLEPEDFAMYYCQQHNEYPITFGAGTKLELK	1.0
